- Tested on: SNB-19 CNS
- experiment notes: NCI tumour cell line growth inhibition, 48 h
result type: TGI (µM)
Could you give me the number in µM? Just the number is fine.

Here's what some known entries look like.
compound: C[CH2][Ge]([CH2]C)([CH2]C)[O]C(=O)C([O][Ge]([CH2]C)([CH2]C)[CH2]C)c1ccccc1 (stereo not given)
tested on: SNB-19 CNS
unit name: µM
TGI: 96.1

compound: Cc1ccc(S(=O)(=O)N[C@@H](Cc2ccccc2)C(=O)CCl)cc1
tested on: SNB-19 CNS
unit name: µM
TGI: 47.2

compound: O=C1O/C(=C\C=C\CO)C=C1/C=C/CO
tested on: SNB-19 CNS
unit name: µM
TGI: 51.4

Problem: Which measured TGI value corresponds to C=C(CN(C)Cc1ccccc1)c1ccc(C(=O)Nc2ccccc2N)cc1 ?
Result: 43.2

---

- System: HCT-116 colon
- experiment notes: NCI tumour cell line growth inhibition, 48 h
// reported TGI per item

compound: CC(C)(C)c1cc(-c2c3nc(c(-c4cc(C(C)(C)C)cc(C(C)(C)C)c4)c4ccc([nH]4)c(-c4cc(C(C)(C)C)cc(C(C)(C)C)c4)c4nc(c(-c5cc(C(C)(C)C)cc(C(C)(C)C)c5)c5ccc2[nH]5)C=C4)C=C3)cc(C(C)(C)C)c1
result type: TGI
reported result: > 100 µM
//
compound: CC(CC(C)[C@H]1CCC2[C@H]3C(CC(=O)[C@@]21C)[C@@]1(C)CCC(O)C[C@H]1C[C@@H]3O)C(=O)O (some centres undefined)
result type: TGI
reported result: > 100 µM
//
compound: C[N+]1(C)C/C(=C\c2ccc(O)cc2)C(=O)/C(=C/c2ccc(O)cc2)C1
result type: TGI
reported result: > 100 µM
//
compound: CN(C(=O)c1cc2c(s1)sc1c(=O)n(C)c3ccccc3c12)c1ccccc1
result type: TGI
reported result: > 100 µM
//
compound: COC1=CC(=O)c2c(n[nH]c2CCNC(=O)OCc2ccccc2)C1=O
result type: TGI
reported result: 24.9 µM

Problem: Give HCT-116 colon TGI for Cc1ncc(COP(=O)(O)O)c(C)c1O
Result: > 100 µM

Problem: Give HCT-116 colon TGI for O=C(Nc1ccccc1[N+](=O)[O-])C(=O)C(C(=O)c1ccccc1-c1ccccc1)C1OC(=O)c2ccccc21 (centres undefined)
Result: 38.4 µM

Problem: Give HCT-116 colon TGI for COC(=O)C1=C(C(=O)OC)C(OO)(c2ccccc2)OC1=O (centres undefined)
Result: > 100 µM

Problem: Give HCT-116 colon TGI for C[n+]1cc2cc3c(cc2c2ccccc21)OCO3
Result: > 100 µM

---

- Tested on: HCT-116 colon
- experiment notes: NCI tumour cell line growth inhibition, 48 h; in the data active = GI50 below about 0.43 µM; inactive = the rest
Returns: one label drawn from 1.0 = active, 0.0 = inactive

Solved cases (2 shown):
compound: COc1ccc(C2CC(c3cccc(OC)c3)=NN2C(=O)c2cc(OC)c(OC)c(OC)c2)cc1 (stereo not given)
cat: 0.0
//
compound: NC(=S)N/N=C/c1ccc(OC(=O)COc2ccccc2)cn1
cat: 0.0

Problem: Please let me know the test result on file for CCOC(=O)Nc1ccc(C(=O)/C=C/c2ccccc2)cc1 .
Result: 0.0

Problem: Please let me know the test result on file for CC(=O)[O][Hg][CH2]C1(C)COC(C)([CH2][Hg][O]C(C)=O)CO1 (stereo not given) .
Result: 0.0

Problem: Please let me know the test result on file for Cc1ccc(NC(=O)N2CCCCC2)cc1[N+](=O)[O-] .
Result: 0.0

Problem: Please let me know the test result on file for Cc1cc(S(=O)(=O)Nc2nc3ccccc3[nH]2)c(SCc2ccccc2)cc1Cl .
Result: 0.0

Problem: Please let me know the test result on file for O=c1cc(-c2ccc3ccccc3c2)[nH]c2ncccc12 .
Result: 0.0
